procedure.text: Selectivity index, ratio of IC50 for cytotoxicity against African green monkey Vero cells to IC50 for chloroquine-resistant Plasmodium falciparum W2
Format: toxicity, cell-based
conditions.used: read-out: Ratio IC50
Give measured selectivity ratio for each item. Keep answers brief.

Task: What value of selectivity ratio has been reported for the following compound? Cc1cc(N2CCCC2)nc(N(CCCNc2ccnc3cc(Cl)ccc23)Cc2ccccn2)n1
Result: > 25.1

Task: What value of selectivity ratio has been reported for the following compound? Cc1cc(N2CCN(C)CC2)nc(N(CCCNc2ccnc3cc(Cl)ccc23)Cc2cccs2)n1
Result: > 45.8

Task: What value of selectivity ratio has been reported for the following compound? C[C@@H]1CC[C@H]2[C@@H](C)C(=O)O[C@@H]3O[C@@]4(C)CC[C@@H]1[C@]32OO4 [ARTEMISININ]
Result: > 52

Task: What value of selectivity ratio has been reported for the following compound? CCN1CCN(c2nc(C)cc(N(CCNc3ccnc4cc(Cl)ccc34)Cc3ccccn3)n2)CC1
Result: > 98

Task: What value of selectivity ratio has been reported for the following compound? CCN1CCN(c2cc(C)nc(N(CCCNc3ccnc4cc(Cl)ccc34)Cc3cccs3)n2)CC1
Result: > 46.8

Task: What value of selectivity ratio has been reported for the following compound? Cc1cc(Cl)nc(N(CCCNc2ccnc3cc(Cl)ccc23)Cc2cccs2)n1
Result: > 22.5

Task: What value of selectivity ratio has been reported for the following compound? Cc1cc(N(CCCNc2ccnc3cc(Cl)ccc23)Cc2cccs2)nc(N2CCCCC2)n1
Result: 38.9

Task: What value of selectivity ratio has been reported for the following compound? Cc1cc(N2CCN(C)CC2)nc(N(CCCNc2ccnc3cc(Cl)ccc23)Cc2ccccn2)n1
Result: > 48.5

Task: What value of selectivity ratio has been reported for the following compound? Cc1cc(N2CCN(C)CC2)nc(N(CCNc2ccnc3cc(Cl)ccc23)Cc2ccccn2)n1
Result: > 68
